System: U2OS
Assay: Multiplex assay against U2OS
Type: toxicity, cell-based
Details: human, 12 h, 10 µM, compound concentration 10 uM, replicate 2
# reported Population Apoptotic (%); entries follow
Write down the numeric answer in % and omit the unit.

Below: 2 molecules and their reported Population Apoptotic (%).
INSERT INTO assay_data (smiles_str, measured_result) VALUES
  ('CN1CCN(c2nc3cc(C(F)(F)F)ccc3n3cccc23)CC1.O=C(O)/C=C\C(=O)O.O=C(O)/C=C\C(=O)O', 88),
  ('CSCC[C@H](NC=O)C(=O)N[C@@H](CC(C)C)C(=O)N[C@@H](Cc1ccccc1)C(=O)O', 90);

Proceeding to the next molecule to report its Population Apoptotic (%).
Input: Provide value of Population Apoptotic (%) for this record tested with U2OS: CC1(COc2ccc3c(c2)ncn3-c2ccc3cccc(N4CCC(N)CC4)c3n2)COC1
Output: 92
